STUDY_TARGET: GCN2 kinase (Homo sapiens (Human), UniProt Q9P2K8)
pIC50: −log10 of the molar value.
Item-by-item account of pIC50
ASSAY_READOUT: pIC50

1) Cc1noc([C@@H]2CN(c3ccnc(-c4cnc5ccc(C(F)F)cn45)n3)C[C@H](C)O2)n1 [I-498]: 7.00 to 8.00
2) C[C@H]1CN(c2ccnc(-c3cnc4ccc(Cl)cn34)n2)C[C@H](c2cn[nH]c2F)O1 (stereo in doubt) [I-175]: > 8.00
3) C[C@H](NS(C)(=O)=O)[C@H]1[C@@H](C)N(c2ccnc(-c3cnc4ccc(C(F)(F)F)cn34)n2)CCN1C1CC1 [I-507]: 6.00 to 7.00
4) C[C@@H]1[C@@H](c2cn[nH]c2)N(C2COC2)CCN1c1ccnc(-c2cnc3ccc(C(F)(F)F)cn23)n1 [I-363]: 6.00 to 7.00
5) NS(=O)(=O)C1CCCN(c2ccnc(-c3cnc4ccc(C(F)(F)F)cn34)n2)C1 (stereo not shown) [I-242]: 7.00 to 8.00
6) CC1(C)CN(c2ccnc(-c3cnc4ccc(C(F)(F)F)cn34)n2)CC2(CNC2)O1 [I-294]: 6.00 to 7.00
7) C[C@H]1[C@@H](CNS(C)(=O)=O)NCCN1c1ccnc(-c2cnc3ccc(C(F)(F)F)cn23)n1 [I-436]: 7.00 to 8.00
8) C[C@H]1CN(c2ccnc(-c3cnc4ccc(Cl)cn34)n2)C[C@@H](c2cn[nH]c2F)O1 [I-176]: > 8.00
9) C[C@@H]1C[C@H](N=S(C)(C)=O)CN(c2ccnc(-c3cnc4ccc(N5CC(F)C5)cn34)n2)C1 [I-330]: 6.00 to 7.00
10) Cc1nnc(C2CN(c3ccnc(-c4cnc5ccc(C(F)(F)F)cn45)n3)CCN2)[nH]1 (stereo not shown) [I-337]: 6.00 to 7.00
11) C[C@H]1C[C@H](c2cn[nH]c2)CN(c2nccc(-c3cnc4ccc(Cl)cn34)n2)C1 (stereo in doubt) [I-198]: > 8.00
12) C[C@@H]1C[C@H](N=S(C)(C)=O)CN(c2ccnc(-c3cnc4ccc(Br)cn34)n2)C1 [I-289]: 7.00 to 8.00
13) CS(=O)(=O)N1CC2(CCCN(c3ccnc(-c4cnc5ccc(C(F)F)cn45)n3)C2)C1 [I-395]: 6.00 to 7.00
14) CC(NS(C)(=O)=O)C1CN(c2ccnc(-c3cnc4ccc(C(F)(F)F)cn34)n2)CCO1 (stereo not shown) [I-327]: 7.00 to 8.00
15) Cc1cnc(N2C[C@@H](C)C[C@@H](c3cn[nH]c3)C2)nc1-c1cnc2ccc(Cl)cn12 [I-186]: > 8.00
16) Cc1cc(-c2cnc3ccc(N4CC(F)(F)C4)cn23)nc(N2C[C@H](C)C[C@H](c3cn[nH]c3)C2)n1 [I-288]: > 8.00
17) C[C@@H](NS(C)(=O)=O)[C@@H]1CN(c2ccnc(-c3cnc4ccc(C(F)(F)F)cn34)n2)CCO1 (stereo in doubt) [I-404]: 7.00 to 8.00
18) C[C@@H]1CN(c2ccnc(-c3cnc4ccc(OC(F)(F)F)cn34)n2)C[C@H](c2cn[nH]c2)O1 [I-293]: > 8.00
19) FC(F)(F)c1ccc2ncc(-c3nccc(N4CCN(C5CC6(COC6)C5)[C@@H](c5cn[nH]c5)C4)n3)n2c1 [I-502]: 7.00 to 8.00
20) Cc1[nH]ncc1C1CN(c2ccnc(-c3cnc4ccc(Cl)cn34)n2)CC(C)N1 (stereo not shown) [I-267]: 7.00 to 8.00
21) O=C([C@H]1C[C@H]1F)N1CCN(c2ccnc(-c3cnc4ccc(C(F)(F)F)cn34)n2)CC1c1cn[nH]c1 (stereo in doubt) [I-489]: 7.00 to 8.00
22) Cc1[nH]ncc1[C@H]1C[C@@H](N=S(C)(C)=O)CN(c2ccnc(-c3cnc4ccc(C(F)(F)F)cn34)n2)C1 [I-342]: 7.00 to 8.00
23) FC(F)(F)c1ccc2ncc(-c3nccc(N4CCN(C5CC5)C(c5cn[nH]c5)C4)n3)n2c1 (stereo in doubt) [I-503]: 7.00 to 8.00
24) Cc1cnc(N2C[C@H](C)C[C@H](c3cn[nH]c3)C2)nc1-c1cnc2ccc(Cl)cn12 [I-185]: 7.00 to 8.00
25) Cc1[nH]ncc1[C@H]1CN(c2nccc(-c3cnc4ccc(Cl)cn34)n2)C[C@H](C)O1 (stereo in doubt) [I-181]: 7.00 to 8.00
26) C[C@@H]1[C@H](c2cn[nH]c2)N(C2COC2)CCN1c1ccnc(-c2cnc3ccc(C(F)(F)F)cn23)n1 [I-362]: > 8.00
27) Cc1[nH]ncc1C1N[C@H](C)CN(c2nccc(-c3cnc4ccc(C(F)(F)F)cn34)n2)[C@@H]1C (stereo partly shown) [I-173]: 6.00 to 7.00
28) NC(=O)C1(O)CCCN(c2ccnc(-c3cnc4ccc(C(F)(F)F)cn34)n2)C1 (stereo not shown) [I-213]: 7.00 to 8.00
29) CC1(C)C[C@@H]1CN1CCN(c2ccnc(-c3cnc4ccc(C(F)(F)F)cn34)n2)C[C@H]1c1cn[nH]c1 [I-529]: > 8.00
30) C[C@H]1[C@H](c2cn[nH]c2)N(C2COC2)CCN1c1ccnc(-c2cnc3ccc(C(F)(F)F)cn23)n1 [I-364]: 6.00 to 7.00
31) NC(=O)C1CN(c2ccnc(-c3cnc4ccc(Cl)cn34)n2)CCO1 (stereo not shown) [I-163]: 7.00 to 8.00

---

STUDY_TARGET: GCN2 kinase (Homo sapiens (Human))
pIC50: −log10 of the molar value.
Item-by-item account of pIC50
ASSAY_READOUT: pIC50

1) COCC1(CN2CCN(c3ccnc(-c4cnc5ccc(C(F)(F)F)cn45)n3)[C@H](C)[C@@H]2c2cn[nH]c2)CCC1 (stereo in doubt): > 8.00
2) Cc1nn(C)cc1[C@H]1CN(c2nccc(-c3cnc4ccc(C(F)(F)F)cn34)n2)C[C@H](C)O1: 6.00 to 7.00
3) C[C@H](NS(C)(=O)=O)[C@@H]1CN(c2ccnc(-c3cnc4ccc(C(F)(F)F)cn34)n2)CCO1: 7.00 to 8.00
4) FC(F)(F)c1ccc2ncc(-c3nccc(N4CCN(C5CC6(COC6)C5)[C@H](c5cn[nH]c5)C4)n3)n2c1: > 8.00
5) NC(=O)CC1CCCN(c2ccnc(-c3cnc4ccc(C(F)(F)F)cn34)n2)C1 (stereo not shown): 7.00 to 8.00
6) O=C1CCC(C(=O)N2CCN(c3ccnc(-c4cnc5ccc(C(F)(F)F)cn45)n3)CC2c2cn[nH]c2)N1 (stereo not shown): 7.00 to 8.00
7) NC(=O)C1CC12CCCN(c1ccnc(-c3cnc4ccc(Cl)cn34)n1)C2 (stereo not shown): 7.00 to 8.00

---

Form: system (GCN2 kinase (Homo sapiens (Human), UniProt Q9P2K8)), quantity (pIC50), values below.
pIC50: −log10 of the molar value.
ASSAY_READOUT: pIC50

1) FC(F)(F)c1ccc2ncc(-c3nccc(N4CCN(Cc5ncc[nH]5)C(c5cn[nH]c5)C4)n3)n2c1 (stereo not shown) [I-371]: > 8.00
2) N#C[C@@H]1CN(c2ccnc(-c3cnc4ccc(C(F)(F)F)cn34)n2)CCO1 [I-232]: 6.00 to 7.00
3) O=C(c1cocn1)N1CCN(c2ccnc(-c3cnc4ccc(C(F)(F)F)cn34)n2)CC1c1cn[nH]c1 (stereo not shown) [I-443]: 7.00 to 8.00
4) COCC1(CN2CCN(c3ccnc(-c4cnc5ccc(C(F)(F)F)cn45)n3)[C@@H](C)[C@@H]2c2cn[nH]c2)CCC1 [I-512]: 6.00 to 7.00
5) CS(=O)(=O)NCC1C[C@@H]2CC[C@H]1N(c1ccnc(-c3cnc4ccc(C(F)F)cn34)n1)C2 (stereo partly shown) [I-394]: 6.00 to 7.00
6) C[C@H]1[C@H](c2cn[nH]c2)N(CC2(C)COC2)CCN1c1ccnc(-c2cnc3ccc(C(F)(F)F)cn23)n1 [I-482]: 7.00 to 8.00
7) N#CC1(C(=O)N2CCN(c3nccc(-c4cnc5ccc(C(F)(F)F)cn45)n3)C[C@@H]2c2cn[nH]c2)CC1 (stereo in doubt) [I-551]: 7.00 to 8.00

---

STUDY_TARGET: intracellular GCN2 (phosphorylation of the GCN2 substrate eIF2α) (Homo sapiens (Human))
Sequence (Q9P2K8 whole entry): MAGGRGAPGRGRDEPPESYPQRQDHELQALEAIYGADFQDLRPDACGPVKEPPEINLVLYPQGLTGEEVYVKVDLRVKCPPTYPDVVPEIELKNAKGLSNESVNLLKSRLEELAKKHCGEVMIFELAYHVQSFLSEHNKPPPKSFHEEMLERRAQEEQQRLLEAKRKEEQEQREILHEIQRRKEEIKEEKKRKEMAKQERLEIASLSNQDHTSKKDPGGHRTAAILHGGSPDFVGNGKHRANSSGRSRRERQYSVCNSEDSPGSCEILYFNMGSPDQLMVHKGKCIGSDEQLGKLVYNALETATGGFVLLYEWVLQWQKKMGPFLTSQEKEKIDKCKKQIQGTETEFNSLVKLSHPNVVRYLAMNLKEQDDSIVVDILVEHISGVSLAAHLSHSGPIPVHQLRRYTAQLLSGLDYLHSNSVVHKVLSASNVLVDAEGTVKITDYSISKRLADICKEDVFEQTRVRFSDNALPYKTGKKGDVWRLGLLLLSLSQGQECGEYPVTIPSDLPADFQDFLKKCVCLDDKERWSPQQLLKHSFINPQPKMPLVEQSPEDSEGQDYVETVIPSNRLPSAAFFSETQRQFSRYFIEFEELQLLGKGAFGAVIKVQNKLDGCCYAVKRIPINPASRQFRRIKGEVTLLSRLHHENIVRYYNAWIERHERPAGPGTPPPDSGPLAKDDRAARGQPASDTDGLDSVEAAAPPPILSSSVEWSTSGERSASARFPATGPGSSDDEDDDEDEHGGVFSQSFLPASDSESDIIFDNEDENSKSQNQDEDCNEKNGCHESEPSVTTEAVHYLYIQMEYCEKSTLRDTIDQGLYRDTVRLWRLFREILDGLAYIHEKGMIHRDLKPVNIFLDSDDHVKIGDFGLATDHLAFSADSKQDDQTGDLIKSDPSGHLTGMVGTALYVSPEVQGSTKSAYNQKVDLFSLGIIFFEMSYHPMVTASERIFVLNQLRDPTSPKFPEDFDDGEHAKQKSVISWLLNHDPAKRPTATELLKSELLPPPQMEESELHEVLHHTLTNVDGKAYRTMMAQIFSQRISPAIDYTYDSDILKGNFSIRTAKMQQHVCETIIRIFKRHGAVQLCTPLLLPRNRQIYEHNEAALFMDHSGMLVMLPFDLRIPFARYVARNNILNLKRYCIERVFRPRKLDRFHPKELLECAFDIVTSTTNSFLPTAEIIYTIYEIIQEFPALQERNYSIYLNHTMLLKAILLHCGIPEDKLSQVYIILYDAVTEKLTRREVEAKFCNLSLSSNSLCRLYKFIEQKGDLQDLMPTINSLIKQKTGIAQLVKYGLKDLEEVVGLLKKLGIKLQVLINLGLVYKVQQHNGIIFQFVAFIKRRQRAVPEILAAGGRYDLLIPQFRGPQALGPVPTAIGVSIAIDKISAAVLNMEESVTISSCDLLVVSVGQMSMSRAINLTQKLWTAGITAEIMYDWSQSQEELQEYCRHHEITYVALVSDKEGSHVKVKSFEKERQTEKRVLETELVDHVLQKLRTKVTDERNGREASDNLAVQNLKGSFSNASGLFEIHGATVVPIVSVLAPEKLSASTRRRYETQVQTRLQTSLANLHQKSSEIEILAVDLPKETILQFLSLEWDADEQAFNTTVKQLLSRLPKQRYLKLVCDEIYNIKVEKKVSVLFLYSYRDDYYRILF
MEASUREMENT_PROTOCOL: GCN2 Cellular Inhibition Assay (AlphaScreen SureFire P-eIF2α Ser51, borrelidin-treated U2OS cells)
Format: cell-based
CONDITION_CONTEXT: 10 μM borrelidin, 1 h, phosphorylated eIF2α Ser51, read-out: GCN2 Biomarker (IC50)
Item-by-item account of IC50
ASSAY_READOUT: IC50

1. Cc1n[nH]cc1C1CC(F)CN(c2ccnc(-c3cnc4ccc(C(F)(F)F)cn34)n2)C1 (centres unmarked): < 500 nM
2. FC(F)(F)c1ccc2ncc(-c3nccc(N4CCN(Cc5cnon5)C(c5cn[nH]c5)C4)n3)n2c1 (centres unmarked): < 500 nM
3. FC(F)(F)c1ccc2ncc(-c3nccc(N4CCN(Cc5cocn5)C(c5cn[nH]c5)C4)n3)n2c1 (centres unmarked): < 500 nM
4. FC(F)(F)c1ccc2ncc(-c3ccnc(N4CCN(C5CC5)[C@H](c5cn[nH]c5)C4)n3)n2c1: < 500 nM
5. FC(F)(F)c1ccc2ncc(-c3cccc(N4CCOC(c5cn[nH]c5)C4)n3)n2c1 (centres unmarked): < 500 nM
6. C[C@@H]1CN(c2ccnc(-c3cnc4ccc(C(F)(F)F)cn34)n2)C[C@H](C)N1C(=O)CC1CCOCC1: 500 to 5000 nM
7. CS(=O)(=O)NCC1CCCN(c2nsc(-c3cnc4ccc(C(F)(F)F)cn34)n2)C1 (centres unmarked): 500 to 5000 nM
8. C[C@H]1CN(c2nc(-c3cnc4ccc(C(F)F)cn34)ns2)C[C@@H](CNS(C)(=O)=O)C1(F)F: < 500 nM
9. c1ccc(Oc2ccc3ncc(-c4nccc(N5CCC[C@H](c6cn[nH]c6)C5)n4)n3c2)cc1: 500 to 5000 nM
10. NS(=O)(=O)c1ccc2ncc(-c3nccc(N4CCCC(c5cn[nH]c5)C4)n3)n2c1 (centres unmarked): 500 to 5000 nM
11. C[C@@H]1C[C@H](N=S(C)(C)=O)CN(c2nccc(-c3cnc4ccc(C(F)F)cn34)n2)C1: < 500 nM
12. FC(F)(F)c1ccc2ncc(-c3nccc(N4CCOC(c5cn[nH]c5)C4)n3)n2c1 (centres unmarked) [I-3]: < 500 nM
13. C[C@H]1[C@H](c2cn[nH]c2)N(C2COC2)CCN1c1ccnc(-c2cnc3ccc(C(F)(F)F)cn23)n1: > 5000 nM
14. CC1CN(c2nccc(-c3cnc4ccc(Cl)cn34)n2)C(C)C(c2cn[nH]c2)N1 (centres unmarked): 500 to 5000 nM
15. O=C(c1cocn1)N1CCN(c2ccnc(-c3cnc4ccc(C(F)(F)F)cn34)n2)CC1c1cn[nH]c1 (centres unmarked): 500 to 5000 nM
16. Cc1n[nH]cc1[C@H]1CN(c2ccnc(-c3cnc4ccc(C(F)(F)F)cn34)n2)C[C@@H](C)O1: < 500 nM
17. NC(=O)C1CN(c2ccnc(-c3cnc4ccc(C(F)(F)F)cn34)n2)CC(F)(F)C1 (centres unmarked): < 500 nM
18. NC(=O)[C@H]1CCCN(c2ncc(F)c(-c3cnc4ccc(C(F)(F)F)cn34)n2)C1: 500 to 5000 nM
19. O=C(c1cnn(C2COC2)c1)N1CCN(c2ccnc(-c3cnc4ccc(C(F)(F)F)cn34)n2)CC1c1cn[nH]c1 (centres unmarked): > 5000 nM
20. FC(F)(F)c1ccc2ncc(-c3nccc(N4CCCC(n5cncn5)C4)n3)n2c1 (centres unmarked): 500 to 5000 nM
21. C[C@H]1CN(c2nccc(-c3cnc4ccc(C(F)(F)F)cn34)n2)CC(c2cc[nH]n2)O1 (stereo in doubt): < 500 nM
22. OC1CC(N2CCN(c3ccnc(-c4cnc5ccc(C(F)(F)F)cn45)n3)CC2c2cn[nH]c2)C1 (centres unmarked): 500 to 5000 nM
23. CS(=O)(=O)NC[C@@H]1CN(c2nc(-c3cnc4ccc(C(F)(F)F)cn34)cs2)CCO1: 500 to 5000 nM
24. NC(=O)[C@@H]1CN(c2ccnc(-c3cnc4ccc(C(F)(F)F)cn34)n2)CCO1: < 500 nM
25. OCC1CN(c2ccnc(-c3cnc4ccc(C(F)(F)F)cn34)n2)CCC1O (centres unmarked): 500 to 5000 nM
26. FC(F)(F)c1ccc2ncc(-c3nccc(N4CCN(C[C@H]5CC56CCOCC6)[C@@H](c5cn[nH]c5)C4)n3)n2c1: < 500 nM
27. C[C@@H](NS(C)(=O)=O)[C@@H]1[C@H](C)N(c2ccnc(-c3cnc4ccc(C(F)(F)F)cn34)n2)CCN1C1CC1: 500 to 5000 nM
28. C[C@@H]1CN(c2ccnc(-c3cnc4ccc(C(F)(F)F)cn34)n2)C[C@H](C)N1C(=O)c1ccn(C2CC2)n1: > 5000 nM
29. Cc1cc(-c2cnc3ccc(Cl)cn23)nc(N2C[C@H](C)C[C@H](c3cn[nH]c3)C2)n1: < 500 nM
30. O=C(C1CC1)N1CCN(c2ccnc(-c3cnc4ccc(C(F)(F)F)cn34)n2)CC1c1cn[nH]c1 (centres unmarked): 500 to 5000 nM
31. FC1(F)CCCN(c2ccnc(-c3cnc4ccc(C(F)(F)F)cn34)n2)C1: < 500 nM
32. C[C@@H]1[C@H](c2cn[nH]c2)NCCN1c1ccnc(-c2cnc3ccc(C(F)(F)F)cn23)n1: < 500 nM
